target: T1, TirM^EHEC, extracellular domain of the translocated intimin receptor (Tir) of enterohaemorrhagic E. coli (Escherichia coli EHEC; strain not …, UniProt Q7DB77, biotin (NHS-biotin, biotin:protein 20:1) for flow cytometry and MACS); assay: ELISA; Maxisorp plates coated with His-tagged TirM at 10 ug/mL in PBS; purified monovalent Nb in 3% skimmed milk in PBS, 0-100 nM (TD4) or 0-400 nM (mutants), 90 min at 23 °C; detected with anti-E-tag; one-site specific binding fit; apparent KD; settings: both partners purified
T1 construct: Translocated intimin receptor Tir of enterohaemorrhagic E. coli (EHEC), extracellular TirM domain; also called EHEC TirM; former antigen
T1 sequence (Q7DB77 252-362): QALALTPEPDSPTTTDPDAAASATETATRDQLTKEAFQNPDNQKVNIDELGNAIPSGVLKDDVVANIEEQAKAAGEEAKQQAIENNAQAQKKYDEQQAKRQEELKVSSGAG
Property: Kd; scope: individual binders
Write down the numeric answer in nM and omit the unit.

Would you please look over these solved cases?
Nb TD4^H107Y, secreted His6-tagged VHH-HlyA fusion (monovalent, purified) (VHH, as the VHH of m7 with H107Y; also called Nb H107Y) VHH: QVQLVDAGGGSVQAGGSLTLSCVASGAAYSTNLLGWFRQAPGKEREGVASIYRGNSATNYADSVKGRFTISQDKTKYTIYLQMNSLKPEDSAMYYCAHGTAPYWYTPIPTLSEDKYFYWGQGTQVTVSS	47.7
Nb TD4, secreted His6-tagged VHH-HlyA fusion (monovalent, purified) (VHH, VHH TD4, as the VHH of m3; No cleavage of the HlyA part or the His tag is described; the fusion was detected by anti-E-tag in ELISA; also called parental TD4; non-evolved TD4; source: E. coli HB2151 with pVDL9.3 (HlyBD) and a pEHLYA derivative, secreted, purified from culture medium (Talon resin)) VHH: QVQLVDAGGGSVQAGGSLTLSCVASGAAYSTNLLGWFRQAPGKEREGVASIYRGNSATNYADSVKGRFTISQDKTKYTIYLQMNSLKPEDSAMYYCAHGTAPYWHTPIPTLSEDKYFYWGQGTQVTVSS	5.55
Nb TD4^T108R, secreted His6-tagged VHH-HlyA fusion (monovalent, purified) (VHH, as the VHH of m7 with T108R; also called Nb T108R) VHH: QVQLVDAGGGSVQAGGSLTLSCVASGAAYSTNLLGWFRQAPGKEREGVASIYRGNSATNYADSVKGRFTISQDKTKYTIYLQMNSLKPEDSAMYYCAHGTAPYWHRPIPTLSEDKYFYWGQGTQVTVSS	4.61

Lookup: Query (binder): Nb TD4^D116G, secreted His6-tagged VHH-HlyA fusion (monovalent, purified) (VHH, as the VHH of m7 with D116G; also called Nb D116G) VHH: QVQLVDAGGGSVQAGGSLTLSCVASGAAYSTNLLGWFRQAPGKEREGVASIYRGNSATNYADSVKGRFTISQDKTKYTIYLQMNSLKPEDSAMYYCAHGTAPYWHTPIPTLSEGKYFYWGQGTQVTVSS ; field requested: Kd
Found: 137
